- Tested on: MS2 coat protein
- assay: apparent KD of MS2 coat protein; designed switch direction (-1 OFF switch, 1 ON switch): -1; higher = weaker reporter binding
- assay-conditions: Eterna round: R95; input ligand: none
Lab note: anything with apparent KD of MS2 coat protein at or over 40 nM counts as True; the rest go in False.

query: Check if apparent KD of MS2 coat protein >= 40 nM (inclusive). Item: AGAGAGUCAGGAUAUCGAAGGGAGAGAAAAGGAGAGAGGUACGAGAAGGGACAUGAGGAUCACCCAUGUAGGUG [JR_Exclusion4)Sub015] (puzzle: Exclusion 4)
result: True

query: How about this sequence: UUUUUCGGACAAGCUACGUACAUGAGGAUCACCCAUGUCGGUAGAUUUGAGUAGGUUUGGAUGGAAGCUCGUCUUAU [JR_SV3TOV1_Sub084] (puzzle: Sensor v3, turn-off variant 1)
result: True

query: How about this sequence: GUGGUGGGUUUUUCGAGUAACAUGAGGAUCACCCAUGUAUUAGUUGGAUGUAUCAAGCUUUGUGCUCGACUUAUAUA [JR_SV3TOV1_Sub044] (puzzle: Sensor v3, turn-off variant 1)
result: True

query: How about this sequence: AGUACUAACACGAAAGUGUUAGUACAAUAAGCUUGUGUAACAUGAGGAUCACCCAUGUCCUCAUAAGCUCGUCUUAU [salish99_TOv2_r3_043] (puzzle: Sensor v3, turn-off variant 2)
result: True

query: How about this sequence: AAUAAACAAGCGAGAUCCUACAUGAGGAUCACCCAUGUGCUCGUCUUAUAAAGUACUAUCACGAAAGUGAUAGUACA [Mat - Sensor v3 - turn-off var 1 - Eli Mod - D65] (puzzle: Sensor v3, turn-off variant 1)
result: False

query: How about this sequence: GAUUAUGCGAGCUUUAGGGACAUGAGGAUCACCCAUGUUCGUCUUAUUGGUCUGGGUACGCUAACAUACCUAAAUCU [JMF 5] (puzzle: Sensor v3, turn-off variant 1)
result: False

query: How about this sequence: GCCAGAGCAGGAUAUUCAAUAUCUCACAUGAGGAUCACCCAUGUCCAUCGAAAGAUGGAGGGAGAAGGGCUCUGGC [Mat - Exclusion 5 - Eli mod - D92] (puzzle: Exclusion 5)
result: True

query: How about this sequence: AGAAAGCAAGGAUAUACAAGGAAACGACGGAAAGUAGAGAGACAUGAGGAUCACCCAUGUAGAAGGUGCGAGAG [JR_Exclu2_Sub033] (puzzle: Exclusion 2)
result: False

query: How about this sequence: CCGGAAAAGGAGGAUAUAGGAGUCGAUAGACACCUAGAAGGCCUGACAUGAGGAUCACCCAUGUGUCCUACCGG [Fiskers Ex 6 - 92] (puzzle: Exclusion 6)
result: False

query: How about this sequence: GAGUGACAUGAGGAUCACCCAUGUGAGGAUAUCCGAUGGACCAAAUUAACAAUAGAAGGGAGAAGGCGCAUAAA [Exclusion 1 V8] (puzzle: Exclusion 1)
result: True

----------
- System: MS2 coat protein
- assay: apparent KD of MS2 coat protein; designed switch direction (-1 OFF switch, 1 ON switch): 1; higher = weaker reporter binding
- assay-conditions: input ligand: none
Consider the following sequences; for each one, report its apparent KD of MS2 coat protein.
Write down the numeric answer in nM and omit the unit.

query: Give the measured apparent KD of MS2 coat protein of UUAGAAUUGCAAGGAUAUCUAAUUUAGAUAGUAAGAGAAGGUGCUUUAUAGUUACAUGAGGAUCACCCAUGUUUUUUUUUUUAU [JR_SSNG1_Sub060] (Eterna round: R96, puzzle: Same State NG 1) .
result: 49.9

query: How about this sequence: AACAUGUGGUGUCACAUGAGGAUCACCCAUGUGGUAAAACCUGAGGAUAUAACGAACCAAAUCAAUUAGAAGGUAGGAUCACAA [AK SSNG3-V2-18] (Eterna round: R96, puzzle: Same State NG 3)
result: 64.2

query: How about this sequence: GAGGGCGAAAGCAACAUGAGGAUCACCCAUGUUGUCGGAGGGCAGGAUAUCCGGCGAAAGCAGAAGGAGAAGGGUCGAAAAGAA [AK SSNG3-V2-39] (Eterna round: R96, puzzle: Same State NG 3)
result: 21.4
